The following molecules are shown together with reported Ki values.
Molecular target: human recombinant L1196M ALK kinase domain (amino acids 1093-1411) (Homo sapiens, UniProt Q9UM73, L1196M)
Construct: ALK kinase domain (amino acids 1093-1411); made in house
Assay: L1196M mutant ALK enzyme assay (microfluidic mobility shift)
Type: biochemical
Details: ATP 60 μM, 0.5 nM enzyme, competitive inhibition fit; read-out: L1196M ALK enzyme assay (Ki)
Assay endpoint: Ki (nM)

CCC1Oc2cc(cnc2N)-c2c(OC)nn(C)c2CN(C)C(=O)c2ccc(F)cc21 (single isomer, unassigned) [Example 24] | 14
COc1snc2c1-c1cnc(N)c(n1)O[C@H](C)c1cc(F)ccc1C(=O)N(C)C2 [Example 51] | 0.28
C[C@H]1Oc2cc(cnc2N)-c2c(nnn2C2CC2)CN(C)C(=O)c2ccc(F)cc21 [Example 137] | 72.4
C[C@H]1Oc2nc(cnc2N)-c2c(nn(C)c2C#N)CN(C2CC2)C(=O)c2ccc(F)cc21 [Example 54] | 0.06

###

Target: human recombinant wild-type ALK kinase domain (amino acids 1093-1411) (Homo sapiens, UniProt Q9UM73)
Construct: ALK kinase domain (amino acids 1093-1411); made in house
Test: Wild-type ALK enzyme assay (microfluidic mobility shift)
Format: biochemical
Conditions: ATP 60 μM, competitive inhibition fit, read-out: WT ALK enzyme assay (Ki)
Recorded Ki by entry
Assay endpoint: Ki (nM)

CCN1Cc2c(c(C)nn2C)-c2cnc(N)c(c2)OC(C)c2cc(F)ccc2C1=O (single isomer, unassigned) [Example 10] | 13
C[C@H]1Oc2nc(cnc2N)-c2c(nn(C)c2C#N)CNC(=O)c2ccc(F)cc21 | 0.33
COc1nccc2c1-c1cnc(N)c(c1)O[C@H](C)c1cc(F)ccc1C(=O)N(C)C2 | 0.56
C[C@H]1Oc2nc(cnc2N)-c2c(C#N)cccc2CN(C)C(=O)c2ccc(F)cc21 | 3.5

###

Target: L1196M EML4-ALK (NIH-3T3 EML4-ALK v1 L1196M cells) (Homo sapiens, UniProt Q9UM73, L1196M)
Construct: expressed in transfected cells; the other entry of the earlier key: EML4 (Q9HC35, Echinoderm microtubule-associated protein-like 4)
Assay: Cellular phospho-ALK (Tyr1604) ELISA assay for L1196M EML4-ALK
Assay type: cell-based
Details: NIH-3T3 EML4-ALK v1 L1196M cells, 1 hour, phospho-ALK (Tyr1604); read-out: ELISA assay for L1196M EML4-ALK (IC50)
pIC50: −log10 of the molar value.
Assay endpoint: pIC50

CC1Oc2nc(cnc2N)-c2c(nn(C)c2C#N)CN(C)C(=O)c2ccc(F)cc21 (single isomer, unassigned) | 8.27
C[C@H]1Oc2nc(cnc2N)-c2c(nn(C)c2C#N)CN(C)C(=O)c2ccccc21 | 7.10
C[C@H]1Oc2cc(cnc2N)-c2c(n[nH]c2C#N)CN(C)C(=O)c2ccc(F)cc21 | 6.72
CC1Oc2cc(cnc2N)-c2c(nn(C)c2C#N)CN(C)C(=O)c2c(F)cccc21 (single isomer, unassigned) | 6.53
CC1c2nn(C)c(C#N)c2-c2cnc(N)c(n2)OCc2cc(F)ccc2C(=O)N1C (single isomer, unassigned) [Example 79] | 6.75
CC1Oc2nc(cnc2N)-c2c(nn(C)c2C#N)COCc2ccc(F)cc21 (single isomer, unassigned) | 6.19
C[C@H]1Oc2cc(cnc2N)-c2c(nn(C)c2C#N)CN(C)Cc2ccc(F)cc21 | 8.58
Cc1nn(C)c2c1-c1cnc(N)c(c1)OC(C)c1cc(F)ccc1C(=O)N(C1CC1)C2 (single isomer, unassigned) [Example 12] | 6.15
CCn1ncc2c1-c1cnc(N)c(c1)O[C@H](C)c1cc(F)ccc1C(=O)N(C)C2 | 6.80
C[C@H]1Oc2nc(cnc2N)-c2c(C(N)=O)noc2CN(C)C(=O)c2ccc(F)cc21 | 5.37
C[C@H]1Oc2nc(cnc2N)-c2c(C#N)nn(CC(F)F)c2CN(C)C(=O)c2ccc(F)cc21 | 7.89
C[C@H]1Oc2cc(cnc2N)-c2c(nn(C)c2C#N)CNC(=O)c2ccc(F)cc21 | 6.05
C[C@H]1Oc2nc(cnc2N)-c2c(nn(C)c2C#N)CN(C2CC2)C(=O)c2ccc(F)cc21 | 8.52
C[C@H]1Oc2nc(cnc2N)-c2c(nn(CC(F)F)c2C#N)CN(C)C(=O)c2ccc(F)cc21 | 8.23
CCCn1nnc2c1-c1cnc(N)c(c1)O[C@H](C)c1cc(F)ccc1C(=O)N(C)C2 | 6.17

###

Molecular target: L1196M EML4-ALK (NIH-3T3 EML4-ALK v1 L1196M cells) (Homo sapiens, UniProt Q9UM73, L1196M)
Construct: expressed in transfected cells; the other entry of the earlier key: EML4 (Q9HC35, Echinoderm microtubule-associated protein-like 4)
Test: Cellular phospho-ALK (Tyr1604) ELISA assay for L1196M EML4-ALK
Assay type: cell-based
Conditions: NIH-3T3 EML4-ALK v1 L1196M cells, 1 hour, phospho-ALK (Tyr1604); read-out: ELISA assay for L1196M EML4-ALK (IC50)
Item-by-item account of IC50
Assay endpoint: IC50 (nM)

CCc1onc2c1-c1cnc(N)c(n1)O[C@H](C)c1cc(F)ccc1C(=O)N(C)C2 | 68.9
CC1Oc2cc(F)ccc2C(=O)N(C)Cc2nn(C)c(C#N)c2-c2cnc(N)c1c2 (single isomer, unassigned) [Example 77] | 3320
C[C@H]1Oc2nc(cnc2N)-c2c(C#N)noc2CN(C)C(=O)c2ccc(F)cc21 | 169
C[C@H]1Oc2nc(cnc2N)-c2c(nn(C3COC3)c2C#N)CN(C)C(=O)c2ccc(F)cc21 | 31.7

###

Biological target: human recombinant L1196M ALK kinase domain (amino acids 1093-1411) (Homo sapiens, UniProt Q9UM73, L1196M)
Construct: ALK kinase domain (amino acids 1093-1411); made in house
Test: L1196M mutant ALK enzyme assay (microfluidic mobility shift)
Type: biochemical
Conditions: ATP 60 μM, 0.5 nM enzyme, competitive inhibition fit; read-out: L1196M ALK enzyme assay (Ki)
Mark t for Ki under 5 nM, f if at or over.

C[C@H]1Oc2cc(nnc2N)-c2c(nn(C)c2C#N)CN(C)C(=O)c2ccc(F)cc21 [Example 60] | f
C[C@H]1Oc2cc(cnc2N)-c2c(nnn2C2CCC2)CN(C)C(=O)c2ccc(F)cc21 [Example 136] | t
COc1noc2c1-c1cnc(N)c(c1)O[C@H](C)c1cc(F)ccc1C(=O)N(C)C2 [Example 111] | t
CCC1Oc2cc(cnc2N)-c2c(OC)nn(C)c2CN(C)C(=O)c2ccc(F)cc21 (single isomer, unassigned) [Example 23] | t
COc1nccc2c1-c1cnc(N)c(c1)OC(C)c1cc(F)ccc1C(=O)N(C)C2 (stereo not shown) [Example 45] | f
CCc1snc2c1-c1cnc(N)c(c1)O[C@H](C)c1cc(F)ccc1C(=O)N(C)C2 [Example 110] | f
CCn1nnc2c1-c1cnc(N)c(c1)O[C@H](C)c1cc(F)ccc1C(=O)N(C)C2 [Example 133] | f

###

Target: WT EML4-ALK (NIH-3T3 EML4-ALK wt v1 cells) (Homo sapiens)
Construct: expressed in transfected cells; the other entry of the earlier key: EML4 (Q9HC35, Echinoderm microtubule-associated protein-like 4)
Assay: Cellular phospho-ALK (Tyr1604) ELISA assay for WT EML4-ALK
Format: cell-based
Conditions: 1 hour, read-out: ELISA assay for WT EML4-ALK (IC50)
pIC50: −log10 of the molar value.
Assay endpoint: pIC50

COc1nccc2c1-c1cnc(N)c(n1)OC(C)c1cc(F)ccc1C(=O)N(C)C2 (single isomer, unassigned) [Example 31] | 7.27
CCn1nnc2c1-c1cnc(N)c(c1)O[C@H](C)c1cc(F)ccc1C(=O)N(C)C2 | 7.02
CN1Cc2ccc(S(C)(=O)=O)cc2-c2cnc(N)c(c2)OCc2cc(F)ccc2C1=O | 7.92
C[C@H]1Oc2nc(cnc2N)-c2c(noc2C#N)CN(C)C(=O)c2ccc(F)cc21 | 7.28
Cc1nn(C)c2c1-c1cnc(N)c(c1)OC(C)c1cc(F)ccc1C(=O)N(C1CC1)C2 (single isomer, unassigned) [Example 12] | 7.46
CN1Cc2c(c(C#N)nn2C)-c2cnc(N)c(n2)OC(CF)c2ccccc2C1=O (single isomer, unassigned) | 8.60
C[C@H]1Oc2nc(cnc2N)-c2c(C#N)n[nH]c2CN(C)C(=O)c2ccc(F)cc21 | 8.19
CN1Cc2nn(C)c(C#N)c2-c2cnc(N)c(c2)OC(CF)c2cc(F)ccc2C1=O (single isomer, unassigned) | 9.26
CCn1ncc2c1-c1cnc(N)c(c1)O[C@H](C)c1cc(F)ccc1C(=O)N(C)C2 | 8.04
CC1c2nn(C)c(C#N)c2-c2cnc(N)c(n2)OCc2cc(F)ccc2C(=O)N1C (single isomer, unassigned) [Example 79] | 7.37
CC1c2nn(C)c(C#N)c2-c2cnc(N)c(n2)OCc2cc(F)ccc2C(=O)N1C (stereo not drawn) [Example 78] | 7.39
CC1Oc2nc(cnc2N)-c2c(C#N)nn3c2C(CC3)N(C)C(=O)c2ccc(F)cc21 (stereo not drawn) [Example 74] | 7.94
COc1nccc2c1-c1cnc(N)c(n1)OC(C)c1cc(F)ccc1C(=O)N(C)C2 (single isomer, unassigned) [Example 30] | 8.58
C[C@H]1Oc2cc(cnc2N)-c2c(nn(C)c2C#N)CN(C2CC2)C(=O)c2ccc(F)cc21 | 8.99
CCCn1nnc2c1-c1cnc(N)c(c1)O[C@H](C)c1cc(F)ccc1C(=O)N(C)C2 | 7.48
